tested system: recombinant homotrimeric HA A/Hong Kong/2108/03 H9N2 (Influenza A virus A/HK/2108/2003(H9N2))
procedure text: protein microarray, purified IgG, trimeric HA
measurement conditions: remark: other sources report otherwise
observed property: Trimeric HA Binding: RLU

1. TCN-546 (5089_L08) (antibody, V domains shown) VH: QVQLQQWGAGLLKPSETLSLTCGVYGGSLSDYYWSWIRQPPGKGLEWIGEINHSGGTNYNPSLKRRVTISVDTSKKQFSLKMNSVTAADTAVYYCARGTDPDTEVYCRAGNCAAFDFWGQGTLVTVSS VL: EIVLTQSPGTLSLSPGERATLSCRASHFVIGRAVAWYQQKPGQAPRLLIYGASSRATGIPDRFSGSGSGTDFTLTISRLETEDFAVFYCQHYGSSPRYAFGQGTKLEIK = 307 RLU
2. TCN-541 (5062_M11) (antibody, V domains shown) VH: QVQLQESGPGLVKPSETLSLTCTVSGGSINSYYWNWIRQPPGKGLEWIGYIYHSGSTNYNPSLKSRVTISVDTSKNQFSLQLSSVTAADTAVYYCARLRTDYGDPDSVYYYGMDVWGQGTTVTVSS VL: SYELTQPPSVSVSPGQTARITCSGDALPKQNAYWYQQKPGQAPVLLIYKDSERPSGIPERFSGSSSGTTVTLTISGVQAEDEADYYCQSADSSGTSWVFGGGTKLTVL = 175 RLU
